The reported measurements were obtained from patent US20250352541A1.

Molecular target: hERG current (Homo sapiens (Human))
Sequence (Q12809 whole entry): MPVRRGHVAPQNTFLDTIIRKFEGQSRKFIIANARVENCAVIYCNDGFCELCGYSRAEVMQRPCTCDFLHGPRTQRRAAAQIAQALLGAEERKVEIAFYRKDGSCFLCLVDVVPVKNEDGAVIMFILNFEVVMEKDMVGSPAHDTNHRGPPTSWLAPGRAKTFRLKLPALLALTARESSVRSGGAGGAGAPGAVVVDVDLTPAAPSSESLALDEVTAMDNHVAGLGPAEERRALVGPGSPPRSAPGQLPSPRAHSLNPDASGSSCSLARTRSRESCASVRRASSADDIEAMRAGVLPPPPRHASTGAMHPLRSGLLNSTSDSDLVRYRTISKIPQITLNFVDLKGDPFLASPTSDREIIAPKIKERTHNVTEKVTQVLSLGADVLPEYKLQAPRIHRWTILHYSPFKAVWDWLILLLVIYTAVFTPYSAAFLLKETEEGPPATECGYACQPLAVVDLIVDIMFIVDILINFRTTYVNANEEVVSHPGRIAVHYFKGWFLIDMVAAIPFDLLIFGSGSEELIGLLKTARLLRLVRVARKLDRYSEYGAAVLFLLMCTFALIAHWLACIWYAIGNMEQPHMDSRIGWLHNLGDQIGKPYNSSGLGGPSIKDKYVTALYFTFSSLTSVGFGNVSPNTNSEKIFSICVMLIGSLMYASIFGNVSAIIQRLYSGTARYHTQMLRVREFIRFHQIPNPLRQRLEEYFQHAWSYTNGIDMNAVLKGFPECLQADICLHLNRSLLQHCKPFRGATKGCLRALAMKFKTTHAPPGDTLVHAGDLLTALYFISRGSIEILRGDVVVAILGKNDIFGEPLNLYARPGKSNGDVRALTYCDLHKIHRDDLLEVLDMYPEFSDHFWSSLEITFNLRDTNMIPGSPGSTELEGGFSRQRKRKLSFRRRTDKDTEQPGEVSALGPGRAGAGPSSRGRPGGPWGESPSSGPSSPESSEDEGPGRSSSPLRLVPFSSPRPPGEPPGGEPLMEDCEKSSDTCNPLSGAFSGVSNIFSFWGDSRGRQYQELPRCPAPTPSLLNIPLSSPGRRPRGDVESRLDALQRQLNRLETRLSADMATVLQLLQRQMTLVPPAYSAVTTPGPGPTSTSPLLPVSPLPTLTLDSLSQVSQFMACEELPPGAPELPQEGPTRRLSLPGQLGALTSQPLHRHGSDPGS
Assay: hERG current blocking test
Details: read-out: hERG inhibition IC50; hERG expressing CHO cells
pIC50: −log10 of the molar value.
measure: pIC50

> print(dat)
                                   compound                        target.system  measure  qualifying.sign  measured.result
1  COc1nccc(OCC2(CO)CNC2)c1-c1cc(Nc2cnc(C#N)cn2)n[nH]1  hERG current (Homo sapiens (Human))    pIC50                <             4.00
2  COc1ccnc(OCC2(CN)CC2)c1-c1cc(Nc2cnc(C#N)cn2)n[nH]1  hERG current (Homo sapiens (Human))    pIC50                >             5.57
3  COc1cncc(OC[C@@]2(F)CCNC2)c1-c1cc(Nc2cnc(C#N)cn2)n[nH]1  hERG current (Homo sapiens (Human))    pIC50                =             5.52
4  COc1cncc(OC[C@H](F)CN)c1-c1cc(Nc2cnc(C#N)cn2)n[nH]1  hERG current (Homo sapiens (Human))    pIC50                =             4.98
5  COc1cncc(OC[C@H]2CNCCO2)c1-c1cc(Nc2cnc(C#N)cn2)n[nH]1 (stereo in doubt)  hERG current (Homo sapiens (Human))    pIC50                >             5.57
6  COc1cncc(OC[C@@H]2CNCCO2)c1-c1cc(Nc2cnc(C#N)cn2)n[nH]1 (stereo in doubt)  hERG current (Homo sapiens (Human))    pIC50                =             5.51
7  COc1cncc(OC[C@]2(F)CCNC2)c1-c1cc(Nc2cnc(C#N)cn2)n[nH]1  hERG current (Homo sapiens (Human))    pIC50                =             5.42
8  COc1cncc(OC[C@@H](F)CN)c1-c1cc(Nc2cnc(C#N)cn2)n[nH]1  hERG current (Homo sapiens (Human))    pIC50                =             4.95
9  COc1ccnc(OCCCN)c1-c1cc(Nc2cnc(C(F)(F)F)cn2)n[nH]1  hERG current (Homo sapiens (Human))    pIC50                >             5.57

###

pIC50: −log10 of the molar value.
CHK1 (Homo sapiens (Human), UniProt O14757): reported pIC50 for various compounds.
Sequence (O14757 whole entry): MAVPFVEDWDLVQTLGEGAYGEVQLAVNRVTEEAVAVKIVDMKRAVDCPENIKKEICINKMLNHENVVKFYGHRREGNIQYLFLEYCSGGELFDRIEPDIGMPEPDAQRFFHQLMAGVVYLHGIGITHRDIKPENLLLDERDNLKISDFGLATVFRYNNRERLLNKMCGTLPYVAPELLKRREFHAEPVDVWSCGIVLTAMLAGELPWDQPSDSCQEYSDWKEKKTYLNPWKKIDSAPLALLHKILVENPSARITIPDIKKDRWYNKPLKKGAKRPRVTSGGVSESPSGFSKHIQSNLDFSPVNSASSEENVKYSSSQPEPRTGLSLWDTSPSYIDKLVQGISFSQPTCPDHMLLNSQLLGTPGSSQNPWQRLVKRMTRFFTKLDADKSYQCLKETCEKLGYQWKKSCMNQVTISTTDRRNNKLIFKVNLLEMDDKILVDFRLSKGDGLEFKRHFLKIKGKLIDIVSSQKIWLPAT
measure: pIC50

> print(dat)
                                 cpd.smiles  qualifying.sign  measured.result
1  COc1cncc(OC[C@@]2(F)CCNC2)c1-c1cc(Nc2cnc(C#N)cn2)n[nH]1                =             9.62
2  COc1cncc(OCC[C@@H](C)N)c1-c1cc(Nc2cnc(C#N)cn2)n[nH]1                =             9.62
3  CNCCCOc1cncc(OC)c1-c1cc(Nc2cnc(C#N)cn2)n[nH]1                =             9.12
4  COc1cncc(OC[C@H]2CCNC2)c1-c1cc(Nc2cnc(C#N)cn2)n[nH]1                =             9.54
5  COc1cncc(OC[C@@H](C)CN)c1-c1cc(Nc2cnc(C#N)cn2)n[nH]1                =             8.46
6  COc1nccc(OCC2(O)CNC2)c1-c1cc(Nc2cnc(C#N)cn2)n[nH]1                =             9.68
7  COc1nccc(OCCCN)c1-c1cc(Nc2cnc(C#N)cn2)n[nH]1                =             9.64
8  N#Cc1cnc(Nc2cc(-c3c(OCF)cncc3OCCCN)[nH]n2)cn1                =             9.52
9  COc1nccc(OCC2(CO)CNC2)c1-c1cc(Nc2cnc(C#N)cn2)n[nH]1                >            10.00
